These measurements were taken from ChEMBL document CHEMBL3991601.

# Measured on: AarF domain-containing protein kinase 1 (Homo sapiens, UniProt Q86TW2)
# Sequence (Q86TW2 whole entry): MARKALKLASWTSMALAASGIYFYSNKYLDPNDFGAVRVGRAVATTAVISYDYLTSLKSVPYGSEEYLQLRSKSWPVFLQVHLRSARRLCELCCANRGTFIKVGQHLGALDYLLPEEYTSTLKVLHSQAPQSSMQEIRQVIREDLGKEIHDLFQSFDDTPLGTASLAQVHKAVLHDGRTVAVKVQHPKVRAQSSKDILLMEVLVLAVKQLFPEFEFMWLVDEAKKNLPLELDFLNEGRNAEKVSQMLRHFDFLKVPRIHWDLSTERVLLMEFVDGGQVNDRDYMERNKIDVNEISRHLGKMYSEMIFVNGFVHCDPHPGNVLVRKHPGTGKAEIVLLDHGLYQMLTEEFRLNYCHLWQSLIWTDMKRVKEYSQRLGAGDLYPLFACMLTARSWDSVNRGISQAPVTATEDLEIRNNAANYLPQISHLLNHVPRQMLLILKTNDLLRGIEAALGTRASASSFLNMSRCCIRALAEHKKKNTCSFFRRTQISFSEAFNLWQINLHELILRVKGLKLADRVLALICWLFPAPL
Activity calls are given as the source filed them.
Give your call using only these classes: yes for active, no for inactive

As a guide, the following entries are already answered.
O=C(Nc1cc(C(F)(F)F)cc(C(F)(F)F)c1)c1cc(Cl)ccc1O [IMD-0354]	no
CCNC(=O)C#Cc1ccc2c(c1)NC(=O)/C2=C(\Nc1ccc(CN(C)C)cc1)c1ccccc1	no
COc1c(OCCCN2CCOCC2)ccc2c1N=C(NC(=O)c1cnc(N)nc1)N1CCN=C21 [COPANLISIB]	no

Please share the test call associated with CC(C)(C)c1nc(-c2cccc(NS(=O)(=O)c3c(F)cccc3F)c2F)c(-c2ccnc(N)n2)s1 [DABRAFENIB] .
no

Would you mind telling me which call this test gave CNC(=O)c1nn(C)c2c1C(C)(C)Cc1cnc(Nc3ccc(N4CCN(C)CC4)cc3)nc1-2 [MILCICLIB] ?
no

Short answer needed: outcome of this test for NC(=O)c1c(OCc2c(F)cc(Br)cc2F)nsc1NC(=O)NCCCCN1CCCC1 [OSI-632] ?
yes

Assay outcome for CC(C)c1cc(CNc2nc(Nc3cc(C4CC4)[nH]n3)cc(N3CCN(C)CC3)n2)on1 [XL-228] : what was it?
no

What outcome does the record of this test show for C#Cc1cccc(Nc2ncnc3cc(OC)c(OCCCCCCC(=O)NO)cc23)c1 [CUDC-101] ?
no

###

# Measured on: Epithelial discoidin domain-containing receptor 1 (Homo sapiens, UniProt Q08345)
# Sequence (Q08345 whole entry, the tested form may be a part): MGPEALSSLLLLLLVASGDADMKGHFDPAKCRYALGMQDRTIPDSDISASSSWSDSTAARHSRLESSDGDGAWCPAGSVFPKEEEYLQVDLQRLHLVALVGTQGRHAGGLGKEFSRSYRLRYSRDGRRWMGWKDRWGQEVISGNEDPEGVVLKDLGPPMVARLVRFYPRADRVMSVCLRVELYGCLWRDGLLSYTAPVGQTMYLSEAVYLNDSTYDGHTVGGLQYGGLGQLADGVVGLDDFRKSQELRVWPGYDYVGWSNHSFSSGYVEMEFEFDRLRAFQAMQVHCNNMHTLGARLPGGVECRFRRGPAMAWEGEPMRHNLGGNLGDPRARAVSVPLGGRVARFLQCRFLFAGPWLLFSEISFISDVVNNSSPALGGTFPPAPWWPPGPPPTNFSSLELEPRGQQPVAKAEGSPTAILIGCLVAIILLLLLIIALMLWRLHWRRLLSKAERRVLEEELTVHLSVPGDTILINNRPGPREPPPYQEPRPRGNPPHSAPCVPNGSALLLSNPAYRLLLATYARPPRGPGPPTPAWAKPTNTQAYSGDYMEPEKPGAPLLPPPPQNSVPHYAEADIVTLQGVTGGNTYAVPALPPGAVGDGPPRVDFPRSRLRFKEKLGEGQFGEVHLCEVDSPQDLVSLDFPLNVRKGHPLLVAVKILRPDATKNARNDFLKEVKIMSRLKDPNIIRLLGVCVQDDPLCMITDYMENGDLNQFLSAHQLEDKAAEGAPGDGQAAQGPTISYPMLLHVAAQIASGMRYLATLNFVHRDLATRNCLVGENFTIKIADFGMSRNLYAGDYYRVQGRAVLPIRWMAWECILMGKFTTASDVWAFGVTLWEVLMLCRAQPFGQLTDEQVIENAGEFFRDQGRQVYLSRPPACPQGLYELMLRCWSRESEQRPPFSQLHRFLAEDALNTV
Counter-ions that a name gives are not always drawn. Active and inactive are the calls of the source.
Just give me one of these, please: 1.0 (active), 0.0 (inactive)

Before answering, review these 6 worked examples.
COc1ncc(-c2ccc3nccc(-c4ccnnc4)c3c2)cc1NS(=O)(=O)c1ccc(F)cc1F [OMIPALISIB]	0.0
Cc1cc(C(=O)NOCCO)c(Nc2ccc(I)cc2F)n(C)c1=O [AZD-8330]	0.0
CCS(=O)(=O)N1CCN(c2ccc(Nc3ncc(C(N)=O)c(NC4CC4)n3)cc2)CC1 [Cerdulatinib Hydrochloride]	0.0
Cn1ncc(Cl)c1-c1cc(C(=O)N[C@H](CN)Cc2ccc(F)c(F)c2)oc1Cl [UPROSERTIB]	0.0
CN1C/C=C/CCOc2cccc(c2)-c2ccnc(n2)Nc2cccc(c2)C1 [ZOTIRACICLIB]	0.0
CC(C)(C)c1nc(-c2cccc(NS(=O)(=O)c3c(F)cccc3F)c2F)c(-c2ccnc(N)n2)s1 [DABRAFENIB]	0.0

Please share the test call associated with C[C@@H](NC(=O)c1ncnc(N)c1Cl)c1ncc(C(=O)Nc2cc(C(F)(F)F)c(Cl)cn2)s1 [TOVORAFENIB] .
1.0

What did the test return for Cc1nc2cc(-n3ncc(C(=O)c4cc5ccccc5[nH]4)c3N)ccc2[nH]1 [FGFR INHIBITOR DEBIO 1347] ?
0.0

###

Here we list compounds with their recorded Kd when tested on Serine/threonine-protein kinase N3 (Homo sapiens, UniProt Q6P5Z2). Also: in the data inactive means no Kd found up to 30 µM.
Sequence (Q6P5Z2 whole entry): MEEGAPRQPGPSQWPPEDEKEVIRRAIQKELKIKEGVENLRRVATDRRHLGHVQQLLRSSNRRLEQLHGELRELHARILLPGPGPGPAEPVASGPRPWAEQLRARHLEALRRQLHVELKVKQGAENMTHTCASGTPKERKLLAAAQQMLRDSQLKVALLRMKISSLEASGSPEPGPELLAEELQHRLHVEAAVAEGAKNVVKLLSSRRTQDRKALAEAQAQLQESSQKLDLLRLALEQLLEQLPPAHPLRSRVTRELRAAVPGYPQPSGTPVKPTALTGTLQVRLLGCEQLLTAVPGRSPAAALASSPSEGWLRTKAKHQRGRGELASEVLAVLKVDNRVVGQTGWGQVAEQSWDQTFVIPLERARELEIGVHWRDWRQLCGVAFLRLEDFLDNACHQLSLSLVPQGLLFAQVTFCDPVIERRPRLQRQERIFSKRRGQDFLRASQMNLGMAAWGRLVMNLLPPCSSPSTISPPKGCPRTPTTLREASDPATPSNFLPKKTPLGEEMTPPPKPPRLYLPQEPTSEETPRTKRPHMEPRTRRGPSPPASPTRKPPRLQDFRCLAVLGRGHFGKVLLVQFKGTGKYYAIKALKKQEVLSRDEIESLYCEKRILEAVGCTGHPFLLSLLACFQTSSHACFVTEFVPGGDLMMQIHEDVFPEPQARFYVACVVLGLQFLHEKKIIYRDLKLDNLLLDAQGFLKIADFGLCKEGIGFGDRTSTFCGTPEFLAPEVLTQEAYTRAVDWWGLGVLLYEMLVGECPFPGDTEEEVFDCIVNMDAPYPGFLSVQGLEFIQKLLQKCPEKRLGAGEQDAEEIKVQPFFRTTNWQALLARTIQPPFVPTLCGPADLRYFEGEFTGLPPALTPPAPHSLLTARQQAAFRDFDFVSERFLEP
Active and inactive are the calls of the source.

Field: example entries. Status: answers known.
CO[C@H]1C[C@@H]2CC[C@@H](C)[C@@](O)(O2)C(=O)C(=O)N2CCCC[C@H]2C(=O)O[C@H]([C@H](C)C[C@@H]2CC[C@@H](OP(C)(C)=O)[C@H](OC)C2)CC(=O)[C@H](C)/C=C(\C)[C@@H](O)[C@@H](OC)C(=O)[C@H](C)C[C@H](C)/C=C/C=C/C=C/1C [RIDAFOROLIMUS]	> 30 µM (inactive)
CO[C@H]1C[C@@H]2CC[C@@H](C)[C@@](O)(O2)C(=O)C(=O)N2CCCC[C@H]2C(=O)O[C@H]([C@H](C)C[C@@H]2CC[C@@H](OC(=O)C(C)(CO)CO)[C@H](OC)C2)CC(=O)[C@H](C)/C=C(\C)[C@@H](O)[C@@H](OC)C(=O)[C@H](C)C[C@H](C)/C=C/C=C/C=C/1C [TEMSIROLIMUS]	> 30 µM (inactive)
CCn1cc(-c2ccnc3[nH]c(-c4cccc(CN(C)C)c4)cc23)c(-c2ccc(NC(=O)N(C)C)cc2)n1 [GSK-1070916]	> 30 µM (inactive)
CCOc1cc2ncc(C#N)c(Nc3ccc(F)c(Cl)c3)c2cc1NC(=O)/C=C/CN(C)C [PELITINIB]	> 30 µM (inactive)
CC(=O)c1cnc2ccc(-c3cc(Cl)c(O)c(Cl)c3)nc2c1N[C@H]1CC[C@H](CN(C)C)CC1	> 30 µM (inactive)

Short answer please: Kd, Serine/threonine-protein kinase N3 (Homo sapiens, UniProt Q6P5Z2), entry NC(=O)c1c(OCc2c(F)cc(Br)cc2F)nsc1NC(=O)NCCCCN1CCCC1 [OSI-632]
> 30 µM (inactive)

// map C[C@@H](N)c1ccc(C(=O)Nc2ccnc3[nH]ccc23)cc1 [Y-39983] to recorded Kd (system: Serine/threonine-protein kinase N3 (Homo sapiens, UniProt Q6P5Z2)); also: in the data inactive means no Kd found up to 30 µM
> 30 µM (inactive)

###

# Measured on: Cyclin-dependent kinase 17 (Homo sapiens, UniProt Q00537)
# Sequence (Q00537 whole entry): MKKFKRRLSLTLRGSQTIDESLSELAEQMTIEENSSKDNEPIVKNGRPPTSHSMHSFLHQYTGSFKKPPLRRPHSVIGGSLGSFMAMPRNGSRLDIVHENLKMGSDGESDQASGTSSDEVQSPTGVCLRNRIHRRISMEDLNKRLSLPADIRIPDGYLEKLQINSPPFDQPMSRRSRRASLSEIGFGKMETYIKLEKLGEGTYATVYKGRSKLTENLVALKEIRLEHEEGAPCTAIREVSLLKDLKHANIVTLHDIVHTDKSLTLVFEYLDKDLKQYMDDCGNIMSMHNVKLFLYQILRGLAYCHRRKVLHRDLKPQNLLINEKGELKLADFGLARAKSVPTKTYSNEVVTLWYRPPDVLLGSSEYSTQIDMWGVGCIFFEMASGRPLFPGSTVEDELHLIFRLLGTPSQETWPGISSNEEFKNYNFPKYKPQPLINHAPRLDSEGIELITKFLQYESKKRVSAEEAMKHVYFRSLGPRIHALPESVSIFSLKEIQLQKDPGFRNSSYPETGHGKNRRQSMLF
The source made the active and inactive calls.
Respond using exactly one of the listed classes: y (active), n (inactive)

Example results:
COc1cc2ncnc(Oc3cccc(NC(=O)Nc4cc(C(C)(C)C(F)(F)F)on4)c3)c2cc1OC	n
Cc1nc(Nc2n[nH]c3c2CN(C(=O)N[C@H](CN(C)C)c2ccccc2)C3(C)C)c2sccc2n1	y
Cc1cccc(-c2nn3c(c2-c2ccnc4ccc(C(N)=O)cc24)CCC3)n1	n

For Cc1csc(-c2nnc(Nc3ccc(Oc4ncccc4-c4ccnc(N)n4)cc3)c3ccccc23)c1 , what call appears in the results of this test?
n

###

Calls of active or inactive are those of the source.
Reported values: Kd for Serine/threonine-protein kinase Nek9 (Homo sapiens, UniProt Q8TD19), one per item.

Solved cases (3 shown):
CC(C)c1cc(CNc2nc(Nc3cc(C4CC4)[nH]n3)cc(N3CCN(C)CC3)n2)on1 [XL-228]	> 30 µM (inactive)
Cc1cnc(NC(=O)Nc2cc(Br)c(C)cc2OC[C@@H]2CNCCO2)cn1 [RABUSERTIB]	> 30 µM (inactive)
NC(=O)c1c(OCc2c(F)cc(Br)cc2F)nsc1NC(=O)NCCCCN1CCCC1 [OSI-632]	> 30 µM (inactive)

Please examine the following record next.
Find the measured Kd: item C[C@@H](Oc1cc(C(=O)Nc2ccc(C(=O)N3CCN(C)CC3)cc2)nnc1N)c1c(Cl)ccc(F)c1Cl , target or system Serine/threonine-protein kinase Nek9 (Homo sapiens, UniProt Q8TD19). Also: in the data inactive means no Kd found up to 30 µM.
> 30 µM (inactive)

###

# Measured on: Activin receptor type-1B (Homo sapiens, UniProt P36896)
# Sequence (P36896 whole entry): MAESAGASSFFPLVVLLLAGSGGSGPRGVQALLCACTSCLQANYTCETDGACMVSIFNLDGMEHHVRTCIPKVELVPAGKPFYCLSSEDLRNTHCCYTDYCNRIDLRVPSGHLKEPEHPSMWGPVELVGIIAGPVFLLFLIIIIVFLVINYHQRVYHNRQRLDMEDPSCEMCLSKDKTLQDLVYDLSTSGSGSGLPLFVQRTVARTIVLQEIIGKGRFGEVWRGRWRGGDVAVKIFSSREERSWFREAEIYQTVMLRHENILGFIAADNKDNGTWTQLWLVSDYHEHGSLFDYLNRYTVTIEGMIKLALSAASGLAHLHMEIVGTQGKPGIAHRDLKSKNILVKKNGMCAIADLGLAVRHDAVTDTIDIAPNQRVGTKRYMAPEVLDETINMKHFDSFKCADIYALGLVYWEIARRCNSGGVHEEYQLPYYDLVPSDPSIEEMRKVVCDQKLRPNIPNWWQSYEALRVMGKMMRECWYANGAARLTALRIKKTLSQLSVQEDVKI
Calls of active or inactive are those of the source.
Thanks in advance; please answer with one of these: TRUE = active, FALSE = inactive

Some solved cases for reference:
C[C@@H](NC(=O)c1ncnc(N)c1Cl)c1ncc(C(=O)Nc2cc(C(F)(F)F)c(Cl)cn2)s1	FALSE
Cc1nc2cc(-c3nn(C(C)C)c4ncnc(N)c34)ccc2o1	TRUE
CNC(=O)c1cc(Oc2ccc(NC(=O)Nc3cc(C(C)(C)C)nn3-c3ccc4ncccc4c3)c(F)c2)ccn1	FALSE

// return assay outcome for COc1cc2ncnc(Oc3cccc(NC(=O)Nc4cc(C(C)(C)C(F)(F)F)on4)c3)c2cc1OC
FALSE

###

# Measured on: Ferrochelatase, mitochondrial (Homo sapiens)
# Sequence (P22830 whole entry): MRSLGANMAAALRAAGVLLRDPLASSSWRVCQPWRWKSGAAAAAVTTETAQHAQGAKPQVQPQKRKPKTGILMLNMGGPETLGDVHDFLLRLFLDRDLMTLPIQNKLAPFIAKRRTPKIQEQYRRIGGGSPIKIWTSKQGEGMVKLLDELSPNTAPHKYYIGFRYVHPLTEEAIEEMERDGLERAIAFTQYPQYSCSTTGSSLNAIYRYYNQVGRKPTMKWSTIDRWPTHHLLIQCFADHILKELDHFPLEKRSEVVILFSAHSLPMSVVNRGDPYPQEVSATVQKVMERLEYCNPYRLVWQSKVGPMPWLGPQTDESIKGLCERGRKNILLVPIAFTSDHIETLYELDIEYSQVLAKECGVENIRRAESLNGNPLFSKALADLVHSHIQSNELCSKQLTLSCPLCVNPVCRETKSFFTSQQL
Activity calls are given as the source filed them.
Choose one outcome from this list and give only that: YES = active, NO = inactive

Tell me the recorded outcome of this test for Cn1cnc2c(F)c(Nc3ccc(Br)cc3F)c(C(=O)NOCCO)cc21 .
NO

Which outcome was entered for the compound CC(C)(C)c1nc(-c2cccc(NS(=O)(=O)c3c(F)cccc3F)c2F)c(-c2ccnc(N)n2)s1 in this test?
NO

Check the results log: what was the call for C[C@@H](NC(=O)c1ncnc(N)c1Cl)c1ncc(C(=O)Nc2cc(C(F)(F)F)c(Cl)cn2)s1 ?
NO

Recorded call for Nc1ncnc2c1c(-c1cccc(OCc3ccccc3)c1)cn2[C@H]1C[C@@H](CN2CCC2)C1 ?
YES

For this compound, state the assay outcome: C=CC(=O)N1CCC[C@H](n2c(=O)n(-c3ccc(Oc4ccccc4)cc3)c3c(N)ncnc32)C1
NO

Look up the recorded call for CN(C[C@@H]1COCCO1)S(=O)(=O)Nc1ccc2ccc3ncc(-c4cnn(C)c4)cc3c(=O)c2c1 in this test.
YES

Which outcome was assigned to Cc1cc(Nc2ncc(Cl)c(Nc3ccccc3S(=O)(=O)C(C)C)n2)c(OC(C)C)cc1C1CCNCC1 in this test?
NO
